meta.source: PubChem BioAssay (NCI)

- method notes: NCI Yeast Anticancer Drug Screen. Data for the mec2-1 strain (AID 157)
- assay conditions: S. cerevisiae mec2-1 strain, at 50.0 µM, active compounds read high
This is part of a sample that, as a whole, favours compounds with a hit. Of some 79,000 tested, about 15% had one in any assay.
endpoint name: growth inhibition (%)
Could you give me the number in %? Just the number is fine.

Worked examples, 3 molecules total:
# molecule, reported result
rows = [
    ("O=C(c1ccccc1)c1nc2c(Cl)ccc(Cl)c2cc1C(Br)Br", 20.8),
    ("Nc1nc(N)c(Nc2ccc(Cl)cc2)c(Cl)n1", 29.2),
    ("O=C(O)c1cc2c([nH]1)-c1cccnc1C(=O)C2=O", -11.3),
]

Now consider a different molecule.
*Q* Need growth inhibition, item C/C=C/C=c1/[nH]c(=O)/c(=C\C)[nH]c1=O
*A* -5.15

* * *

This listing pairs compounds with measured growth inhibition.
- method notes: NCI Yeast Anticancer Drug Screen. Data for the bub3 strain (AID 167)
- assay conditions: S. cerevisiae bub3 mutant strain, at 50.0 µM, active compounds read high
About 79,000 compounds went through this panel and 15% of them were active in at least one assay; those are over-represented in the sample as a whole.
Field: numeric (%). Do not append units.

Field: example entries. Status: answers known.
# compound, growth inhibition (%)
measured = [
    ("BrC1(C2(Br)N(c3ccccc3)CCN2c2ccccc2)N(c2ccccc2)CCN1c1ccccc1", 2),
    ("Cc1[nH]c2c(C)ccc(C)c2c1CC(=O)O", -24.1),
]

Now let's try a different one.
*Q* For the compound shown here, COc1cc(C2c3cc4c(cc3OC(NNC(N)=O)C2C)OCO4)cc(OC)c1OC (stereo not drawn) , give the reported growth inhibition.
*A* 11.5

* * *

- method notes: NCI Yeast Anticancer Drug Screen. Data for the bub3 strain (AID 167)
- assay conditions: S. cerevisiae bub3 mutant strain, at 50.0 µM, active compounds read high
This is part of a sample that, as a whole, favours compounds with a hit. Of some 79,000 tested, about 15% had one in any assay.
Please enter YES where growth inhibition is greater than or equal to 10%, and NO where it is lower.

# molecule, discrete label
measured = [
    ("CN(C)CCCOC(=O)C(O)(Cc1ccccc1)C1CC1 (stereo not given)", "YES"),
    ("CC(CO)CCC(=O)C(C)C1CC2(C)CCC3C(CCC4CC(O)CCC43C)C2C12SCCS2 (stereo not given)", "YES"),
    ("CCOC(=O)CCC1(C(=O)OCC)CCCC1=O (stereo not given)", "YES"),
]

Kindly review the next molecule as well.
*Q* Hello, I need to know if CCOC(=O)C(C)(C)Oc1ccc2c(C)c(-c3ccc(Cl)cc3)c(=O)oc2c1 has measured growth inhibition not below 10%. Thanks!
*A* NO

* * *

Catalogue of growth inhibition values
- method notes: NCI Yeast Anticancer Drug Screen. Data for the mec2-1 strain (AID 157)
- assay conditions: S. cerevisiae mec2-1 strain, at 50.0 µM, active compounds read high
Compounds without any hit were thinned out: in the full panel of roughly 79,000, 15% have a hit.
Respond numerically; units are % and should not be typed.

Solved cases below.
# compound, reported result
measured = [
    ("CC1=CC(=O)N(NC(N)=O)C1=O", -2.9),
    ("NC(=S)c1ccc[n+]([O-])c1", 10.1),
    ("CCOc1cc2c(cc1C(CC)c1ccccc1)OCO2 (stereo not drawn)", 12.6),
    ("CCCCNc1ncnc2c1cnn2-c1ccccc1", -1),
    ("NC(N)=NCCCCNCCCN=C(N)N", -42.8),
]

*Q* Given O=CC1=CCC2c3[nH]c4ccccc4c3CCN2C1 (stereo not drawn) , state its recorded growth inhibition.
*A* 20.5

*Q* Recorded growth inhibition of O=[N+]([O-])c1ccc(N=P(c2ccccc2)(c2ccccc2)c2ccccc2)n2nnnc12 , please.
*A* -27.8

*Q* Returns the measured growth inhibition for the input compound. Input: CCOC(=O)C1=C(Nc2cccc3ccccc23)OC/C1=N\NC(=O)c1ccccc1O
*A* 28.6
